molecular target: KRAS G12V (Homo sapiens (Human), UniProt P01116+P62937, G12V); experiment: Ras-Raf disruption/FRET/MOA assay (BRAF RBD, Cyclophilin A); assay type: biochemical; settings: read-out: KRAS G12V FRET IC50
Sequence (P01116 other isoform, or with tags, fused parts or gaps G12V): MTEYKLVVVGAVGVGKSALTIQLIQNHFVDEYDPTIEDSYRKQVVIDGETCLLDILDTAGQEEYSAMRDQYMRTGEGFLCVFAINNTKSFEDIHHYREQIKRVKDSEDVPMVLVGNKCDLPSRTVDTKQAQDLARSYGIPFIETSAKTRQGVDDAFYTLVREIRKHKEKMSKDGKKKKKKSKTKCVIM
Sequence (P62937 whole entry): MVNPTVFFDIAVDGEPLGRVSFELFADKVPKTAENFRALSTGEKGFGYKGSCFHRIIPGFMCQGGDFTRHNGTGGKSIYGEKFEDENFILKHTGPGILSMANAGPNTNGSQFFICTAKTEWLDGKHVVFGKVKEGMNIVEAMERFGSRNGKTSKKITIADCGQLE
pIC50: −log10 of the molar value.
endpoint.label: pIC50

Some compounds with recorded pIC50:
• CCn1c(-c2cccnc2[C@H](C)OC)c2c3cc(ccc31)-c1cc(O)cc(c1)C[C@H](NC(=O)[C@H](C(C)C)N(C)C(=O)[C@H]1C[C@@H]1O)C(=O)N1CCC[C@H](N1)C(=O)OCC(C)(C)C2 = 7.00 to 8.00
• CCn1c(-c2cccnc2[C@H](C)OC)c2c3cc(ccc31)-c1cc(O)cc(c1)C[C@H](NC(=O)[C@H](C(C)C)N(C)C(=O)[C@@H]1CCCC[C@@H]1N)C(=O)N1CCC[C@H](N1)C(=O)OCC(C)(C)C2 = 6.00 to 7.00
• CCn1c(-c2cccnc2[C@H](C)OC)c2c3cc(ccc31)-c1cc(O)cc(c1)C[C@H](NS(=O)(=O)c1ccc(O)cc1)C(=O)N1CCC[C@H](N1)C(=O)OCC(C)(C)C2 = < 5.00

Fill blank: measured pIC50 of the compound `CCn1c(-c2cccnc2[C@H](C)OC)c2c3cc(ccc31)-c1csc(n1)C[C@H](NC(=O)[C@H](C(C)C)N(C)C(=O)[C@H]1CCN(CCO)C1)C(=O)N1CCC[C@H](N1)C(=O)OCC(C)(C)C2` is ____. < 5.00

Fill blank: measured pIC50 of the compound `CCn1c(-c2cccnc2[C@H](C)OC)c2c3cc(ccc31)-c1cc(O)cc(c1)C[C@H](NC(=O)[C@H](C(C)C)N(C)C(=O)[C@@H]1COC[C@@H]1N)C(=O)N1CCC[C@H](N1)C(=O)OCC(C)(C)C2` is ____. 6.00 to 7.00

Fill blank: measured pIC50 of the compound `CCn1c(-c2cccnc2[C@H](C)OC)c2c3cc(ccc31)-c1csc(n1)C[C@H](NC(=O)[C@H](C(C)C)N(C)C(=O)N1CCN3C(=O)CN(C)C[C@H]3C1)C(=O)N1CCC[C@H](N1)C(=O)OCC(C)(C)C2` is ____. 6.00 to 7.00

Fill blank: measured pIC50 of the compound `CCn1c(-c2cccnc2[C@H](C)OC)c2c3cc(ccc31)-c1cc(O)cc(c1)C[C@H](NC(=O)[C@H](C(C)C)N(C)C(=O)[C@@H]1C[C@@H]1C)C(=O)N1CCC[C@H](N1)C(=O)OCC(C)(C)C2` is ____. 7.00 to 8.00

Fill blank: measured pIC50 of the compound `CCn1c(-c2cccnc2[C@H](C)OC)c2c3cc(ccc31)-c1csc(n1)C[C@H](NC(=O)[C@H](C(C)C)N(C)C(=O)N(C)C1(C)COC1)C(=O)N1CCC[C@H](N1)C(=O)OCC(C)(C)C2` is ____. 5.00 to 6.00

Fill blank: measured pIC50 of the compound `CCn1c(-c2cccnc2[C@H](C)OC)c2c3cc(ccc31)-c1csc(n1)C[C@H](NC(=O)[C@H](C(C)C)N(C)C(=O)N1CC(O)(CN(C)C)C1)C(=O)N1CCC[C@H](N1)C(=O)OCC(C)(C)C2` is ____. 6.00 to 7.00
